molecular target: HIV-1 protease (Human immunodeficiency virus type 1 group M subtype B); assay: biochemical
Where no end group is shown, it is not given here.
ASSAY_ENDPOINT: Ki (µM)

- FLREDLAF [Peptide 1, Phe--Leu--Arg--Glu--Asp--Leu--Ala--Phe]: 98
